Tested System: FER (Homo sapiens, UniProt P16591)
Sequence (P16591 whole entry): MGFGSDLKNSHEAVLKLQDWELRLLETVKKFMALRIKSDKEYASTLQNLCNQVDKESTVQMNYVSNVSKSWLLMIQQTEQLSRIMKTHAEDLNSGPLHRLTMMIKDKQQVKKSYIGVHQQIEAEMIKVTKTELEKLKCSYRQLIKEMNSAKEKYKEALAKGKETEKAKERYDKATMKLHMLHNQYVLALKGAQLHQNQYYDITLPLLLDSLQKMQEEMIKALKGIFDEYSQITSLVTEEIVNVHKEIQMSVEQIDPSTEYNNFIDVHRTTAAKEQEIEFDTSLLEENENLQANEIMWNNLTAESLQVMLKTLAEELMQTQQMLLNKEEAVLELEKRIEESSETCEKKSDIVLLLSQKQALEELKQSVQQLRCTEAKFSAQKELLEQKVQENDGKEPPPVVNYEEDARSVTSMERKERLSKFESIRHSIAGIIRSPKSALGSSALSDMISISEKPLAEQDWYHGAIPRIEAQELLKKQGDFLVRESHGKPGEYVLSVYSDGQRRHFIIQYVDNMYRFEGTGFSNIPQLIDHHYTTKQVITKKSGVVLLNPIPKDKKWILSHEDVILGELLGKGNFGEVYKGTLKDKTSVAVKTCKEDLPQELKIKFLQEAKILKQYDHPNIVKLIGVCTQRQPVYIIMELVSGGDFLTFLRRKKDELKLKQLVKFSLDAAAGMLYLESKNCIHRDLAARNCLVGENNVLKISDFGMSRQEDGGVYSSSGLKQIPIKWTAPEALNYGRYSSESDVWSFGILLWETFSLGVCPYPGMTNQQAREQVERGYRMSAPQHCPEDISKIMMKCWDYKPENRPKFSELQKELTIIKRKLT
Experiment: in vitro kinase assay
Format: biochemical
pIC50: −log10 of the molar value.

{"Smiles": "Cc1cc(Nc2ncc(Cl)c(Nc3ccccc3S(=O)(=O)C(C)C)n2)c(OC(C)C)cc1C1CCNCC1", "pIC50": 8.30}
